Where do the numbers come from? From patent US10323036B2.

Experimental target: human TYK2 (JH2domain-pseudokinase) (Homo sapiens (Human))
Sequence (P29597 556-888): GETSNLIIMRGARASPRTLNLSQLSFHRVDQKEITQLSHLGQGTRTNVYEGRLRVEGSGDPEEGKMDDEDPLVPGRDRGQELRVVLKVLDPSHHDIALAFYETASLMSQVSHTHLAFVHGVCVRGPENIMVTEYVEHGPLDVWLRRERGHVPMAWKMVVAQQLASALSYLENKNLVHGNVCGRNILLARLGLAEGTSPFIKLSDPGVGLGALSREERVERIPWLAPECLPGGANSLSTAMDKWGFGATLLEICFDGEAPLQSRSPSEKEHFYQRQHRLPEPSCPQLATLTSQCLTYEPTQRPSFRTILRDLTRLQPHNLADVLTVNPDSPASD
Protocol notes: TYK2 JH2 Domain Binding Assay (KINOMEscan)
Assay setup: Table 5, Tyk2 JH2 Domain Binding Assay; read-out: JH2 Kd

Substance smiles: CCn1nc(-c2cccc(-c3nnn(C)n3)c2OC)c2cc(NC(=O)C3CC3)ncc21
Kd: 10 to 100 nM
--
Substance smiles: COCc1ccnc(Nc2cc(Nc3cccc(-c4nnn(C)n4)c3OC)c(-c3ncc(Cl)s3)cn2)c1
Kd: 0.1 to 1 nM
--
Substance smiles: COc1c(Nc2cc(NC(=O)C3CC3)ncc2-c2nnc(CO)o2)cccc1-c1ncn(C)n1
Kd: 1 to 10 nM
--
Substance smiles: COc1c(Nc2cc(Nc3cccc(C#N)n3)ncc2-c2nnc(CO)o2)cccc1-c1ncn(C)n1
Kd: 0.1 to 1 nM
--
Substance smiles: COc1c(Nc2cc(Nc3ccc(C)nn3)ncc2-c2nnc(CO)o2)cccc1-c1ncn(C)n1
Kd: 0.1 to 1 nM
--
Substance smiles: COc1c(Nc2cc(Nc3cc(C)nc(C)n3)ncc2-c2nnc(CO)o2)cccc1-c1ncn(C)n1
Kd: 0.1 to 1 nM
--
Substance smiles: COc1c(Nc2cc(NC(=O)C3CC3)ncc2-c2ncc(Cl)s2)cccc1-c1nnn(C)n1
Kd: 1 to 10 nM
--
Substance smiles: COc1c(Nc2cc(NC(=O)C3CC3)ncc2-c2nnc(C(F)(F)F)o2)cccc1-c1ncn(C)n1
Kd: > 100 nM
--
Substance smiles: COc1c(Nc2cc(NC(=O)C3CC3)ncc2-n2cc(CO)cn2)cccc1-c1ncn(C)n1
Kd: > 100 nM
--
Substance smiles: COc1c(Nc2cc(NC(=O)C3CC3)ncc2-c2ncc(F)s2)cccc1-c1nnn(C)n1
Kd: 10 to 100 nM
--
Substance smiles: COc1c(Nc2cc(Nc3cccc(C#N)n3)ncc2-c2ncc(Cl)s2)cccc1-c1nnn(C)n1
Kd: 1 to 10 nM
--
Substance smiles: COc1c(Nc2cc(NC(=O)C3CC3)ncc2-c2ncc(CO)s2)cccc1-c1ncn(C)n1
Kd: 10 to 100 nM
--
Substance smiles: COc1c(Nc2cc(NC(=O)C3CC3)ncc2-c2cccnn2)cccc1-c1ncn(C)n1
Kd: 10 to 100 nM
--
Substance smiles: COc1c(Nc2cc(NC(=O)C3CC3)ncc2-c2noc(CO)n2)cccc1-c1ncn(C)n1
Kd: > 100 nM
--
Substance smiles: COc1c(Nc2cc(Nc3ccc(C)nn3)ncc2-c2ncc(Cl)s2)cccc1-c1nnn(C)n1
Kd: 0.1 to 1 nM
--
Substance smiles: COc1c(Nc2cc(NC(=O)C3CC3)ncc2-c2ccon2)cccc1-c1nnn(C)n1
Kd: > 100 nM
--
Substance smiles: COC(=O)c1nnc(-c2cnc(NC(=O)C3CC3)cc2Nc2cccc(-c3ncn(C)n3)c2OC)o1
Kd: 1 to 10 nM

----------
Experimental target: human TYK2 (JH2domain-pseudokinase) (Homo sapiens (Human))
Protocol notes: TYK2 JH2 Domain Binding Assay (KINOMEscan)
Assay setup: Table 4, JH2 binding assay; read-out: JH2 Kd
Property: Kd

Substance smiles: COc1c(Nc2cc(NC(=O)C3CC3)nc3[nH]n(C)c(=O)c23)cccc1-c1nnn(C)n1
Property: Kd
Value reported: < 0.1 nM

Substance smiles: Cc1ncc(Nc2cc(Nc3ccc(Cl)cc3S(C)(=O)=O)c3c(=O)n(C)[nH]c3n2)nc1C
Property: Kd
Value reported: 1 to 10 nM

Substance smiles: COc1c(Cl)cccc1Nc1cc(Nc2cc3n(n2)CCOC3)nc2[nH]n(C)c(=O)c12
Property: Kd
Value reported: 0.1 to 0.5 nM

Substance smiles: COc1c(Nc2cc(NC(=O)C3CC3)nc3[nH]n(C)c(=O)c23)cccc1-n1cccn1
Property: Kd
Value reported: 0.5 to 1 nM

Substance smiles: COc1c(Nc2cc(Nc3ccc(C4CC4)cn3)nc3[nH]n(C)c(=O)c23)cccc1-c1nnn(C)n1
Property: Kd
Value reported: 0.1 to 0.5 nM

Substance smiles: COCc1ccnc(Nc2cc(Nc3cccc(C(N)=O)c3OC)c3c(=O)n(C)[nH]c3n2)c1
Property: Kd
Value reported: > 10 nM

Substance smiles: CN(c1cc(F)c(F)cc1Nc1cc(NC(=O)C2CC2)nc2[nH]n(C)c(=O)c12)S(C)(=O)=O
Property: Kd
Value reported: 0.5 to 1 nM

Substance smiles: Cn1[nH]c2nc(NC(=O)C3CC3)cc(Nc3ccc(C4CCC4)cc3S(C)(=O)=O)c2c1=O
Property: Kd
Value reported: 0.1 to 0.5 nM

Substance smiles: CCNC(=O)c1ccc(Nc2cc(NC(=O)C3CC3)nc3[nH]n(C)c(=O)c23)c(OC)c1
Property: Kd
Value reported: 1 to 10 nM

Substance smiles: COc1c(Nc2cc(Nc3ccc(C)nn3)nc3[nH]n(C)c(=O)c23)cccc1-c1ncn(C)n1
Property: Kd
Value reported: > 10 nM

Substance smiles: COc1c(Nc2cc(NC(=O)C3CC3)nc3[nH]n(C)c(=O)c23)ccc(F)c1F
Property: Kd
Value reported: > 10 nM

Substance smiles: COc1c(Nc2cc(Nc3ccn(C)n3)nc3[nH]n(C)c(=O)c23)cccc1-c1nnn(C)n1
Property: Kd
Value reported: < 0.1 nM

Substance smiles: COc1cc(C(=O)N2CCOCC2)ccc1Nc1cc(NC(=O)C2CC2)nc2[nH]n(C)c(=O)c12
Property: Kd
Value reported: 0.5 to 1 nM

Substance smiles: Cn1[nH]c2nc(Nc3ccccn3)cc(Nc3ccccc3S(C)(=O)=O)c2c1=O
Property: Kd
Value reported: 0.1 to 0.5 nM

Substance smiles: COCc1ccnc(Nc2cc(Nc3ccc(C4CC4)cc3S(C)(=O)=O)c3c(=O)n(C)[nH]c3n2)c1
Property: Kd
Value reported: 0.1 to 0.5 nM

Substance smiles: CN(c1cc(C2CC2)ccc1Nc1cc(NC(=O)C2CC2)nc2[nH]n(C)c(=O)c12)S(C)(=O)=O
Property: Kd
Value reported: < 0.1 nM

Substance smiles: COc1c(F)cccc1Nc1cc(Nc2ccc(N3CCCC3)cn2)nc2[nH]n(C)c(=O)c12
Property: Kd
Value reported: > 10 nM

Substance smiles: COCc1ccc(Nc2cc(Nc3cccc(C(F)(F)F)n3)nc3[nH]n(C)c(=O)c23)c(OC)c1
Property: Kd
Value reported: 1 to 10 nM

Substance smiles: CCc1ncc(Nc2cc(Nc3cccc(Cl)c3OC)c3c(=O)n(C)[nH]c3n2)nc1C#N
Property: Kd
Value reported: > 10 nM

Substance smiles: Cc1ccc(Nc2cc(NC(=O)C3CC3)nc3[nH]n(C)c(=O)c23)c(N(C)S(C)(=O)=O)c1
Property: Kd
Value reported: < 0.1 nM

Substance smiles: COc1c(Nc2cc(Nc3cc(C)ccn3)nc3[nH]n(C)c(=O)c23)cccc1-c1ncc(C)s1
Property: Kd
Value reported: > 10 nM

Substance smiles: COc1c(Nc2cc(Nc3cccc(C#N)n3)nc3[nH]n(C)c(=O)c23)cccc1-c1ccn(C)n1
Property: Kd
Value reported: 0.1 to 0.5 nM

Substance smiles: COCc1ccnc(Nc2cc(Nc3cccc(F)c3OC)c3c(=O)n(C)[nH]c3n2)c1
Property: Kd
Value reported: 1 to 10 nM

Substance smiles: Cn1[nH]c2nc(Nc3cncc(C#N)n3)cc(Nc3ccccc3S(C)(=O)=O)c2c1=O
Property: Kd
Value reported: 1 to 10 nM

Substance smiles: COCc1ccc(Nc2cc(Nc3ccc(OC)c(C(F)(F)F)n3)nc3[nH]n(C)c(=O)c23)c(OC)c1
Property: Kd
Value reported: > 10 nM

Substance smiles: CN(c1ccccc1Nc1cc(Nc2cc3c(cn2)OCC3)nc2[nH]n(C)c(=O)c12)S(C)(=O)=O
Property: Kd
Value reported: 0.1 to 0.5 nM

Substance smiles: COc1c(Nc2cc(Nc3cc(C)ccn3)nc3[nH]n(C)c(=O)c23)cccc1-c1ncn(C)n1
Property: Kd
Value reported: 0.1 to 0.5 nM

Substance smiles: COc1c(Nc2cc(Nc3cccc(C(F)(F)F)n3)nc3[nH]n(C)c(=O)c23)cccc1-c1nnn(C)n1
Property: Kd
Value reported: 0.1 to 0.5 nM

Substance smiles: COc1c(Nc2cc(NC(=O)C3CC3)nc3[nH]n(C)c(=O)c23)cccc1C(=O)O
Property: Kd
Value reported: 1 to 10 nM

Substance smiles: COc1c(F)cccc1Nc1cc(Nc2ccc(C)nn2)nc2[nH]n(C)c(=O)c12
Property: Kd
Value reported: 0.1 to 0.5 nM
